I'd appreciate it if you could supply protein stability index values for the items below.
B1: KCNA3 (parent)
chain: YQSGGRIRRPVNVPIDIFSEEIRF

Variants of: B1
PROTOCOL: protein stability index of a GFP-peptide fusion (GPS, HEK-293T) (PSI 1-6); higher = more stable;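 note: lentivirally expressed fusions sorted by FACS into six bins by GFP to DsRed ratio, PSI derived from sequencing read proportions per bin multiplied by bin number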
APPLIED_CONDITIONS: c terminus: a fixed tail appended
Reply with just the number.

-- ask Given the variant E21Q , what is its reported protein stability index?
-- reply 2.75

-- ask Given the variant R8D , what is its reported protein stability index?
-- reply 2.13

-- ask Given the variant V13E , what is its reported protein stability index?
-- reply 2.14

-- ask Given the variant R9D , what is its reported protein stability index?
-- reply 1.62

-- ask Given the variant R8V , what is its reported protein stability index?
-- reply 1.77

-- ask Given the variant G5I , what is its reported protein stability index?
-- reply 1.94

-- ask Given the variant P14K , what is its reported protein stability index?
-- reply 1.78

-- ask Given the variant R9G , what is its reported protein stability index?
-- reply 2.23

-- ask Given the variant V11G , what is its reported protein stability index?
-- reply 1.79

-- ask Given the variant E21H , what is its reported protein stability index?
-- reply 2

-- ask Given the variant R9M , what is its reported protein stability index?
-- reply 1.61
